Test system: Enterobacter cloacae VGH 84-37
Assay: in vitro antibacterial MIC, agar plate dilution
Assay type: cell-based
Conditions: Enterobacter cloacae, VGH8437, 18 h, 35° C., read-out: MIC
Method: The in vitro antimicrobial spectrum of the compounds of ths invention were determined by the agar plate dilution method with Mueller-Hinton agar and an inoculum of each test organism of approximately 10^4 colony forming units delivered by the Steers replicating device. The minimal inhibitory concentration (MIC) in mcg/ml is defined as the lowest concentration of test compound that inhibited visible growth after 18 hours incubation at 35° C. […]
Measured metric: MIC (µg/mL)
Lab book: enter the figure in µg/mL, no units written.

The reported MIC of the compound CCn1cc(C(=O)O)c(=O)c2cc(F)c(N3CCNC(c4ccn(S(=O)(=O)c5ccccc5)c4)C3)cc21 (stereo not shown) was 4

MIC measured on CCn1cc(C(=O)O)c(=O)c2cc(F)c(N3CCNC(CF)C3)c(F)c21 (racemic) [Example 63] = 0.5

MIC reported for this compound CCn1cc(C(=O)O)c(=O)c2c(F)c(F)c(N3CCSCC3)c(F)c21 : 4

// recorded MIC for O=C(O)c1cn(C2CC2)c2cc(N3CCNC(c4ccco4)C3)c(F)cc2c1=O (stereo not shown) : 0.03
